assay: IANBD-channel fluorescence artefacts in buffer – biochemical, artefact control for cardiac RTF calcium sensitizer project, confirmation (AID 504382); details: IANBD fluorescence interference counterscreen, EC20 Ca2+, at 7.2 µM, scaled: EC20 calcium 0, EC100 calcium 100
In all, about 2,500 compounds went through this assay and about 460 (18%) were called active.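 The calls were made as follows: active = mean activation above a cutoff of low control average plus 3 SD from the earlier screen (cut at about 12% in these data); inactive = the rest.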 The list is a sample of the results.
Select the matching outcome among active, inactive

Consider the following illustrative entries.
{"columns": ["compound", "assigned.category"],
 "data": [
  ["S=C1NC2=C(CCC/C2=C\\c2ccccc2)C(c2ccccc2)N1 (centres undefined)", "inactive"],
  ["CCc1cccc2cc3c(N)c(C(=O)Nc4ccc(S(=O)(=O)N5CCCC5)cc4)sc3nc12", "inactive"]
]}

Any idea what this test logged for `CC/C(=C/c1sc2ccccc2[n+]1CC)SC` ? inactive

Any idea what this test logged for `O=C(Nc1ccc2c(c1)OCO2)c1ccc2c(c1)OCO2` ? inactive

Any idea what this test logged for `O=[N+]([O-])c1ccc(N/N=C\c2ccccc2OCc2ccccc2)cc1` ? inactive

Any idea what this test logged for `CC[n+]1c(/C=C/N(C)c2ccccc2)oc2ccccc21` ? inactive

Any idea what this test logged for `O=c1oc2cc(O)ccc2cc1-c1nc2c(s1)CCc1ccccc1-2` ? inactive

Any idea what this test logged for COc1cccc(CN2CCNC(=O)C2CC(=O)N(C)Cc2cnccn2)c1OC (centres undefined) ? inactive

Any idea what this test logged for `COC(=O)CNC(=O)COC(=O)c1cc(F)c(F)cc1Cl` ? inactive

Any idea what this test logged for `O=C(Nc1ccc2c(c1)OCCO2)c1cccc(Cl)c1Cl` ? active

Any idea what this test logged for `CCN(CC)c1ccc2cc(C=O)c(=O)oc2c1` ? inactive

---

experiment: IANBD-channel fluorescence artefacts in buffer – biochemical, artefact control for cardiac RTF calcium sensitizer project, confirmation (AID 504382); conditions: IANBD fluorescence interference counterscreen, EC20 Ca2+, at 7.2 µM, stronger effect = higher value, scaled: EC20 calcium 0, EC100 calcium 100
Screen size: about 2,500 compounds; about 460 (18%) were called active. These entries were drawn from the full list.
observable: fluorescence artifact activation (%)
Report only the number, with the unit % understood.

Example molecules with recorded fluorescence artifact activation:
{"columns": ["molecule", "numeric.value"],
 "data": [
  ["COc1cc([N+](=O)[O-])ccc1NC(=O)COC(=O)c1n[nH]c2ccccc12", 0.03],
  ["CCOC(=O)C(C)Sc1nnc(Cc2cc(=O)[nH]c(=O)[nH]2)n1-c1ccc(Cl)cc1 (stereo not given)", 0.21],
  ["CC1(C)c2[nH]c3ccccc3c2C[C@H]2C(=O)N(Cc3ccc(F)cc3)C(=O)N21", 0],
  ["CCOC(=O)C(C)(C)Sc1nc2c(cnn2-c2ccc(Cl)cc2)c(=O)[nH]1", 71.5]
]}

What does the record list as fluorescence artifact activation for `CC1(C)NC(=O)N(CCCCOc2ccc(Cl)cc2)C1=O` ? 0.28

---

experiment: IANBD-channel fluorescence artefacts in buffer – biochemical, artefact control for cardiac RTF calcium sensitizer project, confirmation (AID 504382); settings: IANBD fluorescence interference counterscreen, EC20 Ca2+, at 7.2 µM, stronger effect = higher value, scaled: EC20 calcium 0, EC100 calcium 100
Hit rate of the full screen: of about 2,500 compounds, about 460 (18%) were called active. These entries were drawn from the full list.
observable: fluorescence artifact activation

{"columns": ["chemical.smiles", "fluorescence artifact activation"],
 "data": [
  ["Cc1ccc(NC(=O)CSc2nnc(-c3cccnc3)s2)cc1", "258% (active)"],
  ["COC(=O)[C@H](C)NC(=O)c1cc2c(cn1)[nH]c1ccccc12", "0.32% (inactive)"],
  ["CC(=O)Oc1ccc2c(c1)Oc1cc(OC(C)=O)ccc1C21OC(=O)c2ccccc21", "13.6% (active)"],
  ["Cc1ccc(-c2csc(NC(=O)CSc3nc4ccccc4o3)n2)cc1", "0.77% (inactive)"],
  ["COc1ccc(N=C(N)N=C(N)N)c(OC)c1", "0% (inactive)"]
]}

What does the record list as fluorescence artifact activation for `CCN(CC)C(=O)C(=O)c1c(-c2ccccc2)[nH]c2ccccc12` ? 6.52% (inactive)

What does the record list as fluorescence artifact activation for `CC(=O)Oc1ccc(NC(=O)Cc2ccccc2)c(C(=O)O)c1` ? 4.96% (inactive)
